test system: NCI/ADR-RES ovarian; assay: NCI-60 one-dose screen, 48 h (100 = growth as untreated, 0 = no growth, -100 = all killed); details: 10 µM unless noted
Compounds without any hit were thinned out: in the full panel of roughly 83,000, 20% have a hit.
endpoint: growth (%)
Only the number, expressed in %, is required.

Below, 5 compounds whose answers are already recorded.
>>> reported_result("COC[C@]12CCC(C)(C)C[C@H]1C1=CC[C@@H]3[C@@]4(C)CCCNC(C)(C)[C@@H]4CC[C@@]3(C)[C@]1(C)CC2")
-88
>>> reported_result("CCN(CC)CCn1c2ccc(O)cc2c2sc3cc(OC)ccc3c(=O)c21")
20.8
>>> reported_result("Cc1ccc(-c2cc3nc(C(Cl)Cl)nc(-c4ccco4)n3n2)cc1")
3.8
>>> reported_result("Cn1cc(-c2nc(N)nnc2-c2c[nH]c3ccccc23)c2cc(Br)ccc21")
20.2
>>> reported_result("NC(N)=Nc1ccc(Oc2cccc(Nc3ccc(Cl)cc3)c2)cn1")
56.5

Enter growth (test system NCI/ADR-RES ovarian) for Cc1noc(C)c1CSc1nc2ccccc2n1-c1ccccc1
97.3

Enter growth (test system NCI/ADR-RES ovarian) for COc1ccc(C2CC(c3ccc(Nc4nc(NCCO)nc(N5CCOCC5)n4)cc3)=Nc3c(N)nc(N)nc3N2)cc1 (stereo not given)
107

Enter growth (test system NCI/ADR-RES ovarian) for NC(N)=Nc1ccc(Oc2cccc(NC(N)=Nc3ccc(I)cc3F)c2)cc1
100

Enter growth (test system NCI/ADR-RES ovarian) for CC(=O)Nc1cccc(Nc2nc(N[C@@H](C)c3ccccc3)c3ccccc3n2)c1
-0.0139

Enter growth (test system NCI/ADR-RES ovarian) for COc1cc2nc(Cl)nc(Nc3cccc(C4=Nc5c(N)nc(N)nc5NC(c5ccc(Cl)cc5)C4)c3)c2cc1OC (stereo not given)
80.1

Enter growth (test system NCI/ADR-RES ovarian) for O=C1[C@H]2Cc3c([nH]c4ccccc34)[C@@H](c3c(Cl)cccc3Cl)N2C(=O)CN1C1CCN(CC2CCCCC2)CC1
91.8

Enter growth (test system NCI/ADR-RES ovarian) for O=C(NNc1nc2cc(F)c(F)cc2n2c(CN3CC4CNCC4C3)ccc12)c1ncccn1 (stereo not given)
62.3

Enter growth (test system NCI/ADR-RES ovarian) for N#Cc1cccc(/C(N)=N/C(N)=N/c2nc3ccccc3s2)c1
14.3

Enter growth (test system NCI/ADR-RES ovarian) for CC1(C)[C@@H](O)CC[C@]2(C)[C@H]3CC[C@@H]4[C@H]5[C@H](C(=O)/C=C\c6ccccn6)CC[C@]5(O)CC[C@@]4(C)[C@]3(C)CC[C@@H]12
26.4

Enter growth (test system NCI/ADR-RES ovarian) for O=c1[nH]c2ccccc2cc1CSc1ccccc1Nc1nccc(-c2ccc(Cl)cc2)n1
95.1

----------
tested on: HT29 colon; test: NCI-60 one-dose screen, 48 h (100 = growth as untreated, 0 = no growth, -100 = all killed); details: 10 µM unless noted
About 83,000 compounds went through this panel and 20% of them were active in at least one assay; those are over-represented in the sample as a whole.
Labelling field: enter Y if recorded growth is less than 60%. Enter N if it equals or exceeds that cut-off.

Solved cases (5 shown):
>>> class_assignment("CCOC(=O)c1c(Nc2ccccc2)nn2c(-c3ccccc3)ccnc12")
"N"
>>> class_assignment("O=C(NNc1nc2cc(F)ccc2n2c(CO)ccc12)c1cnccn1")
"Y"
>>> class_assignment("NC(N)=Nc1ccc(Oc2cccc(Nc3ccc(Br)c(C(F)(F)F)c3)c2)cn1")
"Y"
>>> class_assignment("CCCCCc1ccc(S(=O)(=O)Nc2cccc(-c3csc(NC(=O)CNCCN(C)C)n3)c2)cc1")
"Y"
>>> class_assignment("O=C1/C(=C/C=C/c2ccco2)SC(=S)N1c1ccccc1")
"N"

Decide: growth of COc1cc(-c2nc(SCCC(C)C)nc(NNC(=O)c3ccncc3)c2C#N)cc(OC)c1OC strictly below 60%?
Y

Decide: growth of C=C(C)[C@@H]1CC[C@]2(COC)CC[C@]3(C)[C@H](CC[C@@H]4[C@@]5(C)CCCNC(C)(C)[C@@H]5CC[C@]43C)[C@@H]12 strictly below 60%?
Y

Decide: growth of CN(C)CCCOc1ccc2c(c1)CN(C(=O)c1cc(C(=O)N3Cc4cccc(F)c4C3)ccc1O)C2 strictly below 60%?
N

Decide: growth of CCNC(=O)N1CCc2cc(OC)c(OCCc3ccc(OC)nc3)cc2C1c1ccc(OC)cc1C (configuration not stated) strictly below 60%?
Y

Decide: growth of C[C@@H](Nc1ncnc2ccc(-c3cnc(Cl)c(NS(C)(=O)=O)c3)cc12)c1ccccc1 strictly below 60%?
N

Decide: growth of COc1cc(OC)c(S(N)(=O)=O)cc1C(=O)/C=C/c1ccc(Cl)cc1 strictly below 60%?
Y
